Assay: Plasma pharmacokinetics of CX-5461 (HPLC-MS/MS, non-compartmental)
Format: in vivo, human
Settings: human, plasma, intravenous, 475 mg/m2, RP2D 475 mg/m^2 d1,8,15; read-out: elimination half-life (t1/2), day 15 (converted)
QUANTITY_KIND: half-life
Number plus unit, in that order.

Cc1cnc(CNC(=O)c2c(=O)c3ccc(N4CCCN(C)CC4)nc3n3c2sc2ccccc23)cn1 [CX-5461] yielded half-life of 59 h

###

Test: Plasma pharmacokinetics of CX-5461 (HPLC-MS/MS, non-compartmental)
Format: in vivo, human
Conditions: human, plasma, intravenous, 100 mg/m2, 100 mg/m2; Time 0.5; individual patients; read-out: Day 1 CX-5461 plasma concentration
QUANTITY_KIND: concentration at 0.5 h (ng/mL)
# output: bare number, implied unit ng/mL

Cc1cnc(CNC(=O)c2c(=O)c3ccc(N4CCCN(C)CC4)nc3n3c2sc2ccccc23)cn1 yielded concentration at 0.5 h of 141
